# System: HCC1937
# PROTOCOL: normalised response (% of control), CellTiter-Glo; higher = more viable cells (100 = DMSO, 0 = benzethonium chloride kill control)
# CONDITIONS_USED: incubation time: 72 h
ATTRIBUTE_MEASURED: normalised response (%)
# number only, unit % dropped from output

Input line: Returns the measured normalised response for the input molecule. Input: CN1CC[C@H](c2c(O)cc(O)c3c(=O)cc(-c4ccccc4Cl)oc23)[C@H](O)C1 [Alvocidib] (1 nM)
Output line: 103

Input line: Returns the measured normalised response for the input molecule. Input: COc1cccc2cc(-c3nc([C@H]4CC[C@H](C(=O)O)CC4)n4ncnc(N)c34)[nH]c12 [OSI-027] (1 nM)
Output line: 97.1

Input line: Returns the measured normalised response for the input molecule. Input: COc1cccc2c1C(=O)c1c(O)c3c(c(O)c1C2=O)C[C@@](O)(C(=O)CO)C[C@@H]3O[C@H]1C[C@H](N)[C@H](O)[C@H](C)O1 [Doxorubicin] (0.1 nM)
Output line: 101

---
Input line: Returns the measured normalised response for the input molecule. Input: C=CC[C@@H]1/C=C(\C)C[C@H](C)C[C@H](OC)[C@H]2O[C@@](O)(C(=O)C(=O)N3CCCC[C@H]3C(=O)O[C@H](/C(C)=C/[C@@H]3CC[C@@H](O)[C@H](OC)C3)[C@H](C)[C@@H](O)CC1=O)[C@H](C)C[C@@H]2OC [Tacrolimus] (1000 nM)
Output line: 101

Input line: Returns the measured normalised response for the input molecule. Input: CS(=O)(=O)c1ccc(C(=O)Nc2ccc(Cl)c(-c3ccccn3)c2)c(Cl)c1 [Vismodegib] (10 nM)
Output line: 96.4

Input line: Returns the measured normalised response for the input molecule. Input: CN1CC[C@H](c2c(O)cc(O)c3c(=O)cc(-c4ccccc4Cl)oc23)[C@H](O)C1 [Alvocidib] (1000 nM)
Output line: 29.1

Input line: Returns the measured normalised response for the input molecule. Input: Cc1ccc(F)c(NC(=O)Nc2ccc(-c3cccc4[nH]nc(N)c34)cc2)c1 [Linifanib] (100 nM)
Output line: 102

----------
# normalised response values compiled below
# Tested on: SK-BR-3
# PROTOCOL: normalised response (% of control), CellTiter-Glo; higher = more viable cells (100 = DMSO, 0 = benzethonium chloride kill control)
# CONDITIONS_USED: incubation time: 72 h
# number only, unit % dropped from output

# annotated cases, reported normalised response shown
Input line: Returns the measured normalised response for the input molecule. Input: CC[C@]1(O)C[C@@H]2CN(CCc3c([nH]c4ccccc34)[C@@](C(=O)OC)(c3cc4c(cc3OC)N(C)[C@H]3[C@@](O)(C(=O)OC)[C@H](OC(C)=O)[C@]5(CC)C=CCN6CC[C@]43[C@@H]65)C2)C1 [Vinblastine] (1000 nM)
Output line: 17.6

Input line: Returns the measured normalised response for the input molecule. Input: S=c1[nH]cnc2nc[nH]c12 [Mercaptopurine] (10000 nM)
Output line: 85.8

---
Input line: Returns the measured normalised response for the input molecule. Input: CC(=O)O[C@]1(C(C)=O)CC[C@H]2[C@@H]3C=C(C)C4=CC(=O)CC[C@]4(C)[C@H]3CC[C@@]21C [Megestrol acetate] (10000 nM)
Output line: 89
